The measured values listed here are drawn from patent US20260125454A1.

relative activity (%) vs Ref(TEVA): recorded values
# Target or system: CGRP antigen
# Test details: cell-based or functional assay

Check out these entries, answers already filled in.
hu136 (antibody, V domains shown, 2B8 HC1-3/1F5 LC1-2) VH: QVQLVQSGAEVKKPGASVKVSCKASGYTFTDYNMHWVRQAPGQGLEWMGNIYPYNAGTVYNQKFNNRVTLTVDTSSSTAYMELSRLRSDDTAVYYCAREGLGGYWGQGTLVTVSS VL: EIVLTQSPATLSLSPGERATLSCKASQNIDFDGYAYMNWYQHKPGQAPRVLIYSVFNLESGIPARFSGSGSGTDFTLTISSLEPEDFAVYYCQQSHEVPYTFGQGTKLEIK; 28%
hu193 (antibody, V domains shown, 3E5 HC-4/3E5 LC-1) VH: QVQLVQSGAEVKKPGASVKVSCKTSGYTFTDYNMHWVRQAPGQRLEWMGYISPYNAGTAYNQKFKFRVTLTVDTSSSTAYMELSSLRSEDTAVYYCAREGLGGYWGQGTLVTVSS VL: DIVLTQSPDSLAVSLGERATINCKASQNIDYDGYTYLNWYQQKPGQPPKVLIYSIFNLESGVPDRFSGSGSGTDFTLTISSLQAEDVAVYYCQQSNEVPYTFGQGTKLEIK; 42%
hu32 (antibody, V domains shown, 1F5 HC-1/1F5 LC1-2) VH: QVQLVQSGAEVKKPGASVKVSCKASGYTFIDFNMHWVRQAPGQRLEWMGYIYPYNGDVVYNQNFTNRVTLTVDTSSSTAYMELSSLRSEDTAVYYCAREGLGGYWGQGTLVTVSS VL: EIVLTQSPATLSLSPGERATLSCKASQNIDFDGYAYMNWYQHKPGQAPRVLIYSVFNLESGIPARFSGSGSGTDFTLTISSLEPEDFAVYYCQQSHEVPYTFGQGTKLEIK; 26%
hu84 (antibody, V domains shown, 1F5 HC-5/1F5 LC1-2) VH: QVQLVQSGAEVKKPGASVKVSCKASGYTFIDFNMHWVRQAPGQRLEWMGYIYPYNADVVYNQDFTNRVTLTVDTSSSTAYMELSSLRSEDTAVYYCAREGLGGYWGQGTLVTVSS VL: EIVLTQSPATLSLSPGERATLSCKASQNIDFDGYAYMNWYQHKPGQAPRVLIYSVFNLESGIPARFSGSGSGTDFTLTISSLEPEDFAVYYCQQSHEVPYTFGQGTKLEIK; 19%

// moving on: another record for relative activity (%) vs Ref(TEVA)
Q: // relative activity (%) vs Ref(TEVA) lookup, key: hu90 (antibody, V domains shown, 1F5 HC-5/3H10 LC2-1) VH: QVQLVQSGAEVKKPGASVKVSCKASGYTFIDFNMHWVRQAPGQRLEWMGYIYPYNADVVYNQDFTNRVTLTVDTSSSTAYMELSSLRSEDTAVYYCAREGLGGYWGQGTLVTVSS VL: DIVLTQSPDSLAVSLGERATINCKASQNIDYGGYSYMNWYQQKPGQPPKVLIYSVFNLESGVPDRFSGSGSGTDFTLTISSLQAEDVAVYYCQQSNEAPYTFGQGTKLEIK
Ans: 53%
